measured_metric: melting point

Input line: Entry COc1ccc2c(c1)CC1(CCC(c3ccc(C(C)(C)C)cc3)CC1)C2 (stereo unspecified) needs its melting point filled in; supply it.
Output line: 84 to 85 °C

Input line: Entry O=C1NC(=O)[C@@H]2CC=CC[C@H]12 needs its melting point filled in; supply it.
Output line: 131 to 138 °C

Input line: Entry O=C(CCl)Nc1ccc(Br)cc1 needs its melting point filled in; supply it.
Output line: 136 to 137 °C

Input line: Entry CC(C)c1ccccc1OS(=O)(=O)c1ccc([N+](=O)[O-])cc1 needs its melting point filled in; supply it.
Output line: 98 to 100 °C

Input line: Entry C=CC1(C)CC(OC(=O)CO)C2(C)C(C)CCC3(CCC(=O)C32)C(C)C1O (stereo unspecified) needs its melting point filled in; supply it.
Output line: 170 °C

Input line: Entry COc1cc2c(cc1OC)C(c1cc(Cl)ccc1[N+](=O)[O-])=NCC2 needs its melting point filled in; supply it.
Output line: 169 to 170 °C

Input line: Entry Cc1ccc(C(c2ccc(C)o2)c2ccccc2C#N)o1 needs its melting point filled in; supply it.
Output line: 87 °C

Input line: Entry CC(Oc1ccc(Cl)cc1Cl)C(=O)O (stereo unspecified) needs its melting point filled in; supply it.
Output line: 122 °C

Input line: Entry Cc1ccc(C(=O)O)cc1F needs its melting point filled in; supply it.
Output line: 170 to 175 °C

Input line: Entry CCCCCCCCCCCCCCCCCCOP1OCC2(CO1)COP(OCCCCCCCCCCCCCCCCCC)OC2 (stereo unspecified) needs its melting point filled in; supply it.
Output line: 41.5 °C

Input line: Entry ClCc1ccc(-c2ncccn2)cc1 needs its melting point filled in; supply it.
Output line: 83 to 84.5 °C

Input line: Entry CC(=O)OC1CC[C@@]2(C)C(CC[C@@H]3[C@@H]2CC[C@@]2(C)[C@H]3CC[C@]2(O)CCc2ccccc2)C1 (stereo partly specified) needs its melting point filled in; supply it.
Output line: 137 to 139 °C

Input line: Entry CCOC(=O)C(C(C)=O)C(C)C(C(C)=O)C(=O)OC1CC(C)CCC1C(C)C (stereo unspecified) needs its melting point filled in; supply it.
Output line: 155 °C

Input line: Entry Nc1ccccc1CCCCc1ccccc1N needs its melting point filled in; supply it.
Output line: 74 °C

Input line: Entry Cc1ccc(C(=O)C=CC(=O)O)cc1 needs its melting point filled in; supply it.
Output line: 139 °C

Input line: Entry Cc1n[nH]c(C)c1N needs its melting point filled in; supply it.
Output line: 192 °C

Input line: Entry CN(C(=O)C(F)(F)C(F)(F)C(F)(F)C(F)(F)C(F)(F)C(F)(F)C(F)(F)C(F)(F)F)C1CCCCC1 needs its melting point filled in; supply it.
Output line: 57 °C

Input line: Entry Cn1ccccc1=O needs its melting point filled in; supply it.
Output line: 31 °C

Input line: Entry Cc1onc2c(-c3ccc(Cl)cc3)nnc(-c3ccccc3)c12 needs its melting point filled in; supply it.
Output line: 171 °C

Input line: Entry CCc1ccccc1-c1ccccc1 needs its melting point filled in; supply it.
Output line: -6 °C

Input line: Entry CC(=O)NCCS needs its melting point filled in; supply it.
Output line: 6.5 °C

Input line: Entry O=S(=O)(Cl)c1c(F)c(Br)cc(F)c1Br needs its melting point filled in; supply it.
Output line: 69 °C

Input line: Entry CCOc1ccc2c(c1)C(C)=CC(C)(C)N2 needs its melting point filled in; supply it.
Output line: < -20 °C

Input line: Entry COc1ccccc1-c1nnc2n1CN(C(C)C)CS2 needs its melting point filled in; supply it.
Output line: 207 °C

Input line: Entry CCCCCCCCCCOC(=O)CCCCCCCCC needs its melting point filled in; supply it.
Output line: 9.7 °C

Input line: Entry COc1coc(CSP(=O)(OC)OC)cc1=O needs its melting point filled in; supply it.
Output line: 96 °C

Input line: Entry CCCCCCCCOC(C)=O needs its melting point filled in; supply it.
Output line: -38.5 °C

Input line: Entry CCCCCCCCCCCCCCC(C)CC (stereo unspecified) needs its melting point filled in; supply it.
Output line: -6 °C

Input line: Entry Cc1cc(N)ccc1[N+](=O)[O-] needs its melting point filled in; supply it.
Output line: 135 °C

Input line: Entry CC(=O)C=Cc1ccco1 needs its melting point filled in; supply it.
Output line: 39.5 °C

Input line: Entry O=C1Cc2c1ccc1ccccc21 needs its melting point filled in; supply it.
Output line: 72 °C

Input line: Entry CC12CCCCC1CCC1C2CCC2(C)C1CCC2(O)C#Cc1ccccc1 (stereo unspecified) needs its melting point filled in; supply it.
Output line: 108 to 111 °C

Input line: Entry CC(C)NCC(O)c1ccc2ccccc2c1 (stereo unspecified) needs its melting point filled in; supply it.
Output line: 108 °C

Input line: Entry NC(=O)C1CCCNC1 (stereo unspecified) needs its melting point filled in; supply it.
Output line: 102 to 108 °C

Input line: Entry CC1(C)OC2OC(CO)C(O)C2O1 (stereo unspecified) needs its melting point filled in; supply it.
Output line: 68 to 70 °C

Input line: Entry O=C(CBr)C(c1ccccc1)c1ccccc1 needs its melting point filled in; supply it.
Output line: 64 to 66 °C

Input line: Entry CNC(=NO)c1cc(C(C)(C)C)c(O)c(C(C)(C)C)c1 needs its melting point filled in; supply it.
Output line: 200 to 201 °C

Input line: Entry CCCCCCCC(=O)OC needs its melting point filled in; supply it.
Output line: -40 °C

Input line: Entry c1cc2c3c(ccc4c3c1CCC4)CCC2 needs its melting point filled in; supply it.
Output line: 133 °C

Input line: Entry CC1(C)C2CC[C@]1(CS(=O)(=O)O)C(=O)C2 needs its melting point filled in; supply it.
Output line: 200 °C

Input line: Entry CCc1ccc(C#Cc2ccc(C)cc2)cc1 needs its melting point filled in; supply it.
Output line: 73 °C

Input line: Entry COC1C(OC(=O)C=CC=CC=CC=CC(=O)O)CCC2(CO2)C1C1(C)OC1CC=C(C)C (stereo unspecified) needs its melting point filled in; supply it.
Output line: 194 °C

Input line: Entry Cc1ccc(S(=O)(=O)OC2CCCCC2)cc1 needs its melting point filled in; supply it.
Output line: 46 °C

Input line: Entry C=Cc1ccccc1[N+](=O)[O-] needs its melting point filled in; supply it.
Output line: 13 °C

Input line: Entry FC(F)(I)C(F)(F)C(F)(F)C(F)(F)I needs its melting point filled in; supply it.
Output line: -9 °C

Input line: Entry O=C1[C@H]2CC[C@@H]1[C@H]1C=C[C@@H]2O1 needs its melting point filled in; supply it.
Output line: 97 °C

Input line: Entry COc1c(Cl)ccc(Cl)c1Cl needs its melting point filled in; supply it.
Output line: 45 °C

Input line: Entry CCCCC(C)CCO (stereo unspecified) needs its melting point filled in; supply it.
Output line: -90 °C

Input line: Entry O=C(O)C=C(Br)C(=O)O needs its melting point filled in; supply it.
Output line: 184 °C

Input line: Entry N=C(N)N(c1ccccc1)c1ccccc1 needs its melting point filled in; supply it.
Output line: 150 °C

Input line: Entry CC12CCC3C(C(=O)CC4CC(O)(C(Cl)(Cl)Cl)CCC43C)C1CCC2=O (stereo unspecified) needs its melting point filled in; supply it.
Output line: 248 to 254 °C
